Values from the supplement of paper PMC6555819

Field: PBM binding z-score. Provide a value for each of the sequences that follow.
system: RARa:RXR (NR concentration 270 nM, RXRa partner concentration 90 nM); assay: PBM binding z-score (relative to random genomic background probes); higher = stronger binding; sequences stand for … in GC…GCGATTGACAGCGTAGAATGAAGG
# answer = number (no unit)

Challenge: Reported PBM binding z-score, sequence CCAGACAGGTGAAAGGTAAATCAGTCTGGTACGC : ____
Response given: 1.67

Challenge: Reported PBM binding z-score, sequence CCGTCTGGGGCAGAAAGGTTACCATACCATCCGG : ____
Response given: 1.51

Challenge: Reported PBM binding z-score, sequence CTCGAAAGGTCGGTTGGGGTGAGTATACGGATAA : ____
Response given: 2.76

Challenge: Reported PBM binding z-score, sequence CGGCCAAGGTCAAGGTCAGTGAAAGAGACTCGAA : ____
Response given: 5.17

Challenge: Reported PBM binding z-score, sequence CATACAGGGTCAGATAGGCCAGAGTAGGGACGGC : ____
Response given: 2.94

Challenge: Reported PBM binding z-score, sequence TCTAGCAGGCCAGAGGGTTACTCAAGAGGTACGG : ____
Response given: -0.0112

Challenge: Reported PBM binding z-score, sequence AGAACGAGGGCACGCTGAGATGATAGCAGAGTAG : ____
Response given: 0.762

Challenge: Reported PBM binding z-score, sequence CGTCCAAGGTGAGAGAGGTCAGTGAATGCCGAGT : ____
Response given: 3.54

Challenge: Reported PBM binding z-score, sequence ACAGACAGGTGAGTGAAGTTAACTCAGCTGGACG : ____
Response given: -0.744

Challenge: Reported PBM binding z-score, sequence TCGAGTAGGTTAGGGGTATTCAGAATGGCGTCGA : ____
Response given: 0.00419

Challenge: Reported PBM binding z-score, sequence CTCGAATGGTCGGTTGAGGTGAGTATACGGATAA : ____
Response given: 0.211

Challenge: Reported PBM binding z-score, sequence TGAATGAGGTTATATGATCAGGGAACGTTGCAAA : ____
Response given: 1.77

Challenge: Reported PBM binding z-score, sequence CCTCGGAGCACAACAGGAGGTCAGAGCTGCCAGA : ____
Response given: 2.01

Challenge: Reported PBM binding z-score, sequence TCTATTAGTTGATTAGGGCAACCTAAACAGCGGA : ____
Response given: 1.11

Challenge: Reported PBM binding z-score, sequence TGAATGAGGTTATAAGATCGGGGAACGTTGCAAA : ____
Response given: 1.05

Challenge: Reported PBM binding z-score, sequence ACAGACAGGTGAGTGAACGTAACTCAGCTGGACG : ____
Response given: -0.741

Challenge: Reported PBM binding z-score, sequence CAAACTAGGTCACAGACGTCAAAGTCCGTGCGTA : ____
Response given: 2.65

Challenge: Reported PBM binding z-score, sequence GTAACAAGGTGAATAGGTCGTTGATGAGTAGGCG : ____
Response given: 2.04

Challenge: Reported PBM binding z-score, sequence CCTCGGAGGACCACAGGAGGTCAGAGCTGCCAGA : ____
Response given: 2.45

Challenge: Reported PBM binding z-score, sequence GTACCAAGGTGAATAGGTTGTTGATGAGTAGGCG : ____
Response given: 0.634

Challenge: Reported PBM binding z-score, sequence AGTCTAAGTTCAGGACGAGGTAACGTAAAGCACG : ____
Response given: 1.79

Challenge: Reported PBM binding z-score, sequence TCGAGTAGGTTACCAATGGGGCATTCACCTTTCT : ____
Response given: 1.1

Challenge: Reported PBM binding z-score, sequence GATACAGGGTCAAGGCCCGAGTACGCGTATTGAT : ____
Response given: 4.6

Challenge: Reported PBM binding z-score, sequence CCGCGGAGGACAGAAGGTCAGAGCTGTCCGCTTT : ____
Response given: 2.3

Challenge: Reported PBM binding z-score, sequence TCTATTAGTTAATTAGGGCAACCGAAACAGCGGA : ____
Response given: 0.998

Challenge: Reported PBM binding z-score, sequence CAGCCTAGGTCAGGGCCAGTATTGGAGGAACGTT : ____
Response given: 1.02

Challenge: Reported PBM binding z-score, sequence TAGCCTAGGTCATTGCGCCAGTATAGTACGCATC : ____
Response given: 2.62

Challenge: Reported PBM binding z-score, sequence TCGCGGAGGACACGAAAGGTCAGAGCTCGACATC : ____
Response given: 4.24

Challenge: Reported PBM binding z-score, sequence GCTTGTAGATCCAGGTTAAGAAAGACTAAGCTAA : ____
Response given: 0.118

Challenge: Reported PBM binding z-score, sequence CCTTACGAGTCAAGGTTATAGCACGGGTGGTACG : ____
Response given: 0.888

Challenge: Reported PBM binding z-score, sequence CAGACTGGGGCATAAGGTTACCATAAGCCAGCCC : ____
Response given: 1.59

Challenge: Reported PBM binding z-score, sequence CCTCGGAGGACAACAGGAGGTGAGAGCTGCCAGA : ____
Response given: -0.183

Challenge: Reported PBM binding z-score, sequence TCTATTAGTTGAAGGGCCACCGACGAGTCCGTTT : ____
Response given: 0.817

Challenge: Reported PBM binding z-score, sequence GCGACTGGGGCATCAGCAGGTTACTATAACTTAA : ____
Response given: 0.369

Challenge: Reported PBM binding z-score, sequence CATACAGGGTCAGCTAGGCCTGAGTAGGGACGGC : ____
Response given: 3.27

Challenge: Reported PBM binding z-score, sequence ATCTCTAGGTAAAGATAGTTCAGTAAATGCAAAT : ____
Response given: 0.952

Challenge: Reported PBM binding z-score, sequence TAGCCTAGGTAATGCGGGCCAGTATAGTGTCGGC : ____
Response given: -0.925

Challenge: Reported PBM binding z-score, sequence CCTAGTTGGTCAGGATGTCACACACCGGATATGA : ____
Response given: 0.0158

Challenge: Reported PBM binding z-score, sequence TCTGCTAGGTCAACAATGGTCAGCTAATCTGCTA : ____
Response given: 2.29

Challenge: Reported PBM binding z-score, sequence TCGAGTCGGTTAGTCGGGGCATTCAGCCAACATA : ____
Response given: -0.027

Challenge: Reported PBM binding z-score, sequence AGTCAAAGTTCAGGACGAGTTAACGTAAAGCACG : ____
Response given: 2.4

Challenge: Reported PBM binding z-score, sequence ATCGATAGGTCGTGAGGTGAGTATACAGAAAGGC : ____
Response given: 1.94

Challenge: Reported PBM binding z-score, sequence ATCGAAAGGTCGAAGGTGTGTATACCCACCCGAA : ____
Response given: 3.33

Challenge: Reported PBM binding z-score, sequence CGACCAAGGTCAGCAGGTCAGTGAAAGCGACGTG : ____
Response given: 4.62

Challenge: Reported PBM binding z-score, sequence ATCTCTAGGTAAAATTTCAGTGAATCCCGAGGAT : ____
Response given: 0.0546

Challenge: Reported PBM binding z-score, sequence TCATATAGGTAAAGGTGAAAGTCGAACGATATGA : ____
Response given: 1.71

Challenge: Reported PBM binding z-score, sequence ATCTCTAGGTAAAGATAGTTCAGAGAATGCAAAT : ____
Response given: 0.707

Challenge: Reported PBM binding z-score, sequence TCTTGTAGATCAAGCAGGTAAAGAAAGCCTGAGT : ____
Response given: 0.203

Challenge: Reported PBM binding z-score, sequence CTCGAAAGGTCGTGCTCAAGTGAGTATACCAAAC : ____
Response given: 3.74

Challenge: Reported PBM binding z-score, sequence AGAATCAGGTTATTAAGATCAGGGAATTGCGGTC : ____
Response given: 0.644

Challenge: Reported PBM binding z-score, sequence TCGAGTAGGTTAGGGGCGTTCAGAATGGCGTCGA : ____
Response given: 0.223
